Tested on: CAKI-1
experimentSummary: NCI tumour cell line growth inhibition, 48 h
Activity calls are given as the source filed them. Cut-off read from the data, not from the text of the source: active = GI50 up to about 1.1 µM and inactive = higher.
Outcome codes: active, inactive

compound: COC(=O)c1cc(Cl)ccc1NC(=O)c1ccc([N+](=O)[O-])cc1
assignedLabel: inactive

compound: CCOC(=O)C1=c2[nH]c3cccc4cccc(c43)n2C(=O)CC1
assignedLabel: inactive

compound: CC/C(=N/O)C(C)C(=O)CCC(=O)Nc1ccc(Cl)cc1 (stereo not drawn)
assignedLabel: inactive

compound: O=C1c2cc(CCl)sc2C(=O)c2ccsc21
assignedLabel: inactive

compound: O=C(O)C1CC=CCC1C(=O)Nc1cccc(O)c1 (stereo not drawn)
assignedLabel: inactive

compound: C1CSC(Sc2nc(SC3=NCCS3)nc(SC3=NCCS3)n2)=N1
assignedLabel: inactive

compound: O=C1N[C@H]2C(=O)c3c(Br)sc(Br)c3[C@H]2O1
assignedLabel: inactive

compound: CC(C)=CCCC(C)CCOS(=O)C(F)(F)F (stereo not drawn)
assignedLabel: inactive

compound: COC(=O)CC1(O)C(=O)OCc2c1cc1n(c2=O)Cc2c-1nc1ccccc1c2OC (stereo not drawn)
assignedLabel: active

compound: CCCCCCCSCC(O)COC(c1ccccc1)(c1ccccc1)c1ccccc1 (stereo not drawn)
assignedLabel: inactive

compound: COc1ccc(/C=N/NC(=O)NCCNCCO)cc1
assignedLabel: inactive

compound: c1cnc2c(c1)Nc1cnncc1S2
assignedLabel: inactive

compound: NC(CNO)C(=O)O (stereo not drawn)
assignedLabel: inactive
